- Tested on: Mus musculus
- assay-details: Antinociceptive activity in Swiss albino mouse assessed as inhibition of acetic acid-induced abdominal constriction at 40 mg/kg, po administered 30 mins prior to testing measured for 10 mins starting 5 mins after acetic acid injection relative to control
- Assay type: functional
- condition-parameters: Abdomen
Can you tell me inhibition in vivo at 40 mg/kg for the items I'm about to list?
One number for each entry, in %.

Take a look at these entries with their results.
Query: inhibition in vivo at 40 mg/kg; subject: `C=Cc1c(CCC)nn(CCCN2CCN(c3ccc(C)cc3)CC2)c(=O)c1N`
22

Quick one: inhibition in vivo at 40 mg/kg for `CC(=O)c1cccn1CCCN1CCN(c2ccc([N+](=O)[O-])cc2)CC1` ?
0

Dear reader, for each entry below, please note its inhibition in vivo at 40 mg/kg.
1. O=c1occ(-c2ccccc2)n1CCCN1CCN(c2ccc(F)cc2)CC1
2. COc1cccc(N2CCN(CCCn3nc(-c4ccccc4)c(C#N)c3C)CC2)c1
3. CC(=O)c1cccn1CCCN1CCN(c2cccc(Cl)c2)CC1
4. Cc1c(C#N)c(-c2ccccc2)nn1CCCN1CCN(c2ccc([N+](=O)[O-])cc2)CC1
5. C=Cc1c(CC)nn(CCCN2CCN(c3ccc(C)cc3)CC2)c(=O)c1N

34
34
54
49
28

* * *

For each entry below, report its inhibition in vivo at 40 mg/kg value.
- Tested on: Mus musculus
- assay-details: Antinociceptive activity in Swiss albino mouse assessed as inhibition of acetic acid-induced abdominal constriction at 40 mg/kg, po administered 30 mins prior to testing measured for 10 mins starting 5 mins after acetic acid injection relative to control
- Type: functional
- condition-parameters: Abdomen
Write your answer as a measured quantity: the number, then the unit.

Please supply inhibition in vivo at 40 mg/kg for each of the following items, keeping them in order.
1. COc1cccc(N2CCN(CCCn3c(-c4ccccc4)coc3=O)CC2)c1
2. CCCC(=O)c1c(C)nn(CCCN2CCN(c3ccc(C)cc3)CC2)c(=O)c1N
3. C/C=C/c1c(C)nn(CCCN2CCN(c3ccc(C)cc3)CC2)c(=O)c1N
4. C=Cc1c(C)nn(CCCN2CCCN(c3ccc(C)cc3)CC2)c(=O)c1N
5. O=c1occ(-c2ccccc2)n1CCCN1CCN(c2cccc(Cl)c2)CC1
6. Cc1c(C#N)c(-c2ccccc2)nn1CCCN1CCN(c2cccc(Cl)c2)CC1

["39%", "32%", "63%", "31%", "38%", "23%"]

Return reported inhibition in vivo at 40 mg/kg values for all items listed beneath this line.
1. CC(=O)c1cccn1CCCN1CCN(c2ccc(C)cc2)CC1
2. CCC/C=C/c1c(C)nn(CCCN2CCN(c3ccc(C)cc3)CC2)c(=O)c1N
3. Cc1ccc(N2CCN(CCCn3nc(-c4ccccc4)c(C#N)c3C)CC2)cc1
4. C=Cc1c(CCCC)nn(CCCN2CCN(c3ccc(C)cc3)CC2)c(=O)c1N
5. C=Cc1c(C)nn(CCCN2CCN(c3ccc(C)cc3)CC2)c(=O)c1N
6. CC/C=C/c1c(C)nn(CCCN2CCN(c3ccc(C)cc3)CC2)c(=O)c1N
7. CC(=O)c1cccn1CCCN1CCN(c2ccc(F)cc2)CC1
8. CCC(=O)c1c(C)nn(CCCN2CCN(c3ccc(C)cc3)CC2)c(=O)c1N

1. 9%
2. 36%
3. 30%
4. 48%
5. 65%
6. 45%
7. 38%
8. 29%

* * *

For each record, write down the corresponding inhibition in vivo at 40 mg/kg.
- Tested on: Mus musculus
- assay-details: Antinociceptive activity in Swiss albino mouse assessed as inhibition of acetic acid-induced abdominal constriction at 40 mg/kg, po administered 30 mins prior to testing measured for 10 mins starting 5 mins after acetic acid injection relative to control
- Assay type: functional
- condition-parameters: Abdomen
Give bare numbers, in %.

Some solved entries appear below for comparison.
Would you kindly share the measured inhibition in vivo at 40 mg/kg for `CCc1nn(CCCN2CCN(c3ccc(C)cc3)CC2)c(=O)c(N)c1C(C)=O` ?
41

inhibition in vivo at 40 mg/kg for `Cc1c(C#N)c(-c2ccccc2)nn1CCCN1CCN(c2ccc(F)cc2)CC1` ?
51

Record request: inhibition in vivo at 40 mg/kg value, item `COc1cccc(N2CCN(CCCn3cccc3C(C)=O)CC2)c1`
52

We next turn to a different compound, shown below.
So what's the measured inhibition in vivo at 40 mg/kg for this one? `CCCCC(=O)c1c(C)nn(CCCN2CCN(c3ccc(C)cc3)CC2)c(=O)c1N`
15
